# tested target: FluB-ht WT (recombinant influenza B heterotrimeric PA/PB1/PB2 polymerase, PA endonuclease) (Influenza B virus, UniProt Q5V8Z9)
# assay name: biochemical
measurement label: Ki (nM)
Give bare numbers, in nM.

Query block: Would you kindly share the measured Ki for O=C1c2c(O)c(=O)ccn2N([C@@H]2c3ccccc3SCc3c2ccc(F)c3F)[C@@H]2COCCN12 ?
Result block: 12

====

# tested target: FluB-ht WT (recombinant influenza B heterotrimeric PA/PB1/PB2 polymerase, PA endonuclease) (Influenza B virus)
# assay name: biochemical
measurement label: pIC50
Answers are plain numbers, as −log10 of the molar value.

Query block: Would you kindly share the measured pIC50 for O=C1c2c(O)c(=O)ccn2N([C@@H]2c3ccccc3SCc3c2ccc(F)c3F)[C@@H]2COCCN12 ?
Result block: 6.95
